Biological target: recombinant cohesin (CipA of Clostridium josui, BAA32429) (Clostridium josui)
Assay: SPR (Biacore T-100), fusion captured via anti-JNK3 antibody on Protein A chip, cohesin as analyte, +Ca2+ (1 mM CaCl2), no EGTA
Ends that are not written are not given here.
The following binders are listed with their measured kon values.
REPORTED_ENDPOINT: kon (M⁻¹ s⁻¹)

binder="recombinant JNK3 of which an I49T-substituted dockerin polypeptide is fused at the N-terminal (protein, not shown: large carriers; small tags and cut ends) MGLKGDVNNDGAIDALDIAALKKAILTQSTSNINLTNADMNNDGNIDATDFAQLKVKLLN" unit_descriptor="M⁻¹ s⁻¹" readout_number=1.6e+06
binder="recombinant JNK3 of which an I49N-substituted dockerin polypeptide was fused at the N-terminal (protein, not shown: large carriers; small tags and cut ends) MGLKGDVNNDGAIDALDIAALKKAILTQSTSNINLTNADMNNDGNIDANDFAQLKVKLLN" unit_descriptor="M⁻¹ s⁻¹" readout_number=1.3e+06
binder="recombinant JNK3 of which an L16T/I49T-substituted dockerin polypeptide is fused at the N-terminal (protein, not shown: large carriers; small tags and cut ends) MGLKGDVNNDGAIDATDIAALKKAILTQSTSNINLTNADMNNDGNIDATDFAQLKVKLLN" unit_descriptor="M⁻¹ s⁻¹" readout_number=4.9e+06
binder="recombinant JNK3 of which an I49V-substituted dockerin polypeptide is fused at the N-terminal (protein, not shown: large carriers; small tags and cut ends) MGLKGDVNNDGAIDALDIAALKKAILTQSTSNINLTNADMNNDGNIDAVDFAQLKVKLLN" unit_descriptor="M⁻¹ s⁻¹" readout_number=430000
binder="recombinant JNK3 of which a wild-type dockerin was fused at the N-terminal (protein, not shown: large carriers; small tags and cut ends, not fully specified (C-terminus)) MGLKGDVNNDGAIDALDIAALKKAILTQSTSNINLTNADMNNDGNIDAIDFAQLKVKLLN" unit_descriptor="M⁻¹ s⁻¹" readout_number=810000
binder="recombinant JNK3 of which an I49S-substituted dockerin polypeptide is fused at the N-terminal (protein, not shown: large carriers; small tags and cut ends) MGLKGDVNNDGAIDALDIAALKKAILTQSTSNINLTNADMNNDGNIDASDFAQLKVKLLN" unit_descriptor="M⁻¹ s⁻¹" readout_number=1e+06
binder="recombinant JNK3 of which an I49G-substituted dockerin polypeptide is fused at the N-terminal (protein, not shown: large carriers; small tags and cut ends) MGLKGDVNNDGAIDALDIAALKKAILTQSTSNINLTNADMNNDGNIDAGDFAQLKVKLLN" unit_descriptor="M⁻¹ s⁻¹" readout_number=3e+06

Attribution: patent US20100204445A1
